Let's look at some binders and their measured DC50 (half-life of the peptide-HLA-A2.1 complex).
Target: HLA-A2.01 molecule at the surface of T2 cells
Assay: T2 cells loaded overnight; residual surface complexes by indirect immunofluorescence and FACS at 0, 2, 4 and 5 h
Non-standard residues stand in square brackets, D forms with d. No end group written: not given here. Abu = CC[C@H](N)C(=O)O
Hi! Could you send only the number? It should be in h, unit omitted.

Answered examples (2):
• PIGRIAECI (modifications not checked) [P9I] = 0
• RIAE[Abu]ILGM [R9M-5α-but] = 2

[Q] Consider the binder YMPIGRIAE (modifications not checked) [Y9E] . State its measured DC50 (half-life of the peptide-HLA-A2.1 complex).
[A] 0

All figures here come from patent US20040018205A1.
